System: Vibrio coli 3811
Assay: in vitro tube dilution test (MIC)
Assay type: cell-based
Conditions: Campylobacter coli, 3811
observation-type: MIC (µg/mL)

compound: Cn1cc(C(=O)NN=Cc2ccc([N+](=O)[O-])o2)c([N+](=O)[O-])n1 [Compound 74]
value-relation-sign: =
recorded-number: 0.39
--
compound: O=C(NN=Cc1ccc([N+](=O)[O-])o1)c1cn(CCO)nc1[N+](=O)[O-] [Compound 94]
value-relation-sign: <
recorded-number: 1.56
--
compound: N#Cc1cn(-c2ncc([N+](=O)[O-])s2)nc1[N+](=O)[O-] [Compound 68]
value-relation-sign: =
recorded-number: 12.5
--
compound: NC(=O)c1cn(-c2ncc([N+](=O)[O-])s2)nc1[N+](=O)[O-] [Compound 95]
value-relation-sign: <
recorded-number: 1.56
--
compound: NC(=O)c1cn(C2C=CC(n3cc(C(N)=O)c([N+](=O)[O-])n3)C=C2)nc1[N+](=O)[O-] (stereo not shown) [Compound 59]
value-relation-sign: =
recorded-number: 12.5
--
compound: N#Cc1cn(-c2ccc([N+](=O)[O-])cc2)nc1[N+](=O)[O-] [Compound 92]
value-relation-sign: =
recorded-number: 6.25
--
compound: NC(=O)c1cn(-c2ccc([N+](=O)[O-])cc2)nc1[N+](=O)[O-] [Compound 5]
value-relation-sign: =
recorded-number: 6.25
